Reference source for all entries: the supplement of paper PMC10307832

tested on: UMC-11; experiment: relative viability (nuclei count vs DMSO), 5 days (fraction); higher = more cells survive; details: first compound 0.6325 µM
Reported relative viability values for the following molecules.
result.type: relative viability

[[record]]
molecule = "CN1CCN(CCOc2cc(OC3CCOCC3)c3c(Nc4c(Cl)ccc5c4OCO5)ncnc3c2)CC1 [Saracatinib] + CS(=O)(=O)N1CCN(Cc2cc3nc(-c4cccc5[nH]ncc45)nc(N4CCOCC4)c3s2)CC1 [Pictilisib] (partner 1 µM)"
observed_measurement = 0.836

[[record]]
molecule = "CN1CCN(CCOc2cc(OC3CCOCC3)c3c(Nc4c(Cl)ccc5c4OCO5)ncnc3c2)CC1 [Saracatinib] + C[C@]1(O)C[C@@H](c2nc(-c3ccc4ccc(-c5ccccc5)nc4c3)c3c(N)nccn32)C1 [Linsitinib] (partner 1 µM)"
observed_measurement = 0.956

[[record]]
molecule = "CN1CCN(CCOc2cc(OC3CCOCC3)c3c(Nc4c(Cl)ccc5c4OCO5)ncnc3c2)CC1 [Saracatinib] + O=C(CCCCCCC(=O)Nc1ccccc1)NO [Vorinostat] (partner 1 µM)"
observed_measurement = 0.388


* * *

system: NCI-H2126; assay: relative viability (nuclei count vs DMSO), 5 days (fraction); higher = more cells survive; conditions: first compound 2.53 µM
relative viability strictly less than 0.7 = 1 (yes). Otherwise 0 (no).

[[record]]
molecule = "Nc1cccc2c1CN(C1CCC(=O)NC1=O)C2=O (stereo not given) [Lenalidomide] + CS(=O)(=O)CCNCc1ccc(-c2ccc3ncnc(Nc4ccc(OCc5cccc(F)c5)c(Cl)c4)c3c2)o1 [Lapatinib] (partner 2 µM)"
category_label = "0 (no)"

[[record]]
molecule = "Nc1cccc2c1CN(C1CCC(=O)NC1=O)C2=O (stereo not given) [Lenalidomide] + O=C(c1cc(Cc2n[nH]c(=O)c3ccccc23)ccc1F)N1CCN(C(=O)C2CC2)CC1 [Olaparib] (partner 8 µM)"
category_label = "0 (no)"

[[record]]
molecule = "Nc1cccc2c1CN(C1CCC(=O)NC1=O)C2=O (stereo not given) [Lenalidomide] + Nc1ncn([C@H]2C[C@H](O)[C@@H](CO)O2)c(=O)n1 [Decitabine] (partner 2 µM)"
category_label = "1 (yes)"

[[record]]
molecule = "Nc1cccc2c1CN(C1CCC(=O)NC1=O)C2=O (stereo not given) [Lenalidomide] + Cc1nc(Nc2ncc(C(=O)Nc3c(C)cccc3Cl)s2)cc(N2CCN(CCO)CC2)n1 [Dasatinib] (partner 0.075 µM)"
category_label = "1 (yes)"


* * *

Here, each record is paired with measured relative viability data.
system: NCI-H2126; assay: relative viability (nuclei count vs DMSO), 5 days (fraction); higher = more cells survive; conditions: first compound 0.2 µM
result.type: relative viability

[[record]]
molecule = "CN1CCN(CCOc2cc(OC3CCOCC3)c3c(Nc4c(Cl)ccc5c4OCO5)ncnc3c2)CC1 [Saracatinib] + Cc1nc(Nc2ncc(C(=O)Nc3c(C)cccc3Cl)s2)cc(N2CCN(CCO)CC2)n1 [Dasatinib] (partner 0.075 µM)"
observed_measurement = 0.511

[[record]]
molecule = "CCNC(=O)c1noc(-c2cc(C(C)C)c(O)cc2O)c1-c1ccc(CN2CCOCC2)cc1 [Luminespib] + C[C@]1(O)C[C@@H](c2nc(-c3ccc4ccc(-c5ccccc5)nc4c3)c3c(N)nccn32)C1 [Linsitinib] (partner 1 µM)"
observed_measurement = 0.741

[[record]]
molecule = "CCNC(=O)c1noc(-c2cc(C(C)C)c(O)cc2O)c1-c1ccc(CN2CCOCC2)cc1 [Luminespib] + CC(=O)c1c(C)c2cnc(Nc3ccc(N4CCNCC4)cn3)nc2n(C2CCCC2)c1=O [Palbociclib] (partner 0.5 µM)"
observed_measurement = 0.393

[[record]]
molecule = "CCNC(=O)c1noc(-c2cc(C(C)C)c(O)cc2O)c1-c1ccc(CN2CCOCC2)cc1 [Luminespib] + CS(=O)(=O)N1CCN(Cc2cc3nc(-c4cccc5[nH]ncc45)nc(N4CCOCC4)c3s2)CC1 [Pictilisib] (partner 1 µM)"
observed_measurement = 0.273

